assaySystem: furin, P09958;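 further: purified furin at 1:10 enzyme:substrate in 50 mM HEPES pH 7.5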
Sequence (P09958 whole entry): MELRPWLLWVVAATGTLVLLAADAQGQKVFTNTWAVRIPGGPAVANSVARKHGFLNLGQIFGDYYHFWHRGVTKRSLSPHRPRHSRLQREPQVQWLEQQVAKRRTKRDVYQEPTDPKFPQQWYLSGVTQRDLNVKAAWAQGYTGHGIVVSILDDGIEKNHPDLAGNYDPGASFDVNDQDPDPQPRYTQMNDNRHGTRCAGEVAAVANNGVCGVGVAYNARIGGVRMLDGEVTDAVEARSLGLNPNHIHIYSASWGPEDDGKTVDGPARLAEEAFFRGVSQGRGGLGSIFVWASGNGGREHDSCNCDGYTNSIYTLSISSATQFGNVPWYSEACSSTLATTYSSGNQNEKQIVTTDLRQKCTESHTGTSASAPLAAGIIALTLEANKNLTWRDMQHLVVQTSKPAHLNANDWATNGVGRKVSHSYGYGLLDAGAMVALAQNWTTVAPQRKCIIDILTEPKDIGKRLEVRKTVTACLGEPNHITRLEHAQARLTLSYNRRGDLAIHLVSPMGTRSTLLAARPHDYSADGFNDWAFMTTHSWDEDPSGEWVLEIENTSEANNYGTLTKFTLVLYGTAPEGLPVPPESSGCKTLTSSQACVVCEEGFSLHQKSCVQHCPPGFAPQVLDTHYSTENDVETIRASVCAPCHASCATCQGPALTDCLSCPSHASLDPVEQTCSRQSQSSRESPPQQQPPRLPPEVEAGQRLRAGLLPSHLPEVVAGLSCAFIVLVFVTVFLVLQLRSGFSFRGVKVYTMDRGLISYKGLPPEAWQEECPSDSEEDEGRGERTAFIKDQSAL
assayProcedure: furin cleavage Z-score vs untreated control; higher = more cleavage, active = 3.5 or more, inactive = 1 or less, 8 variable residues between constant flanks
conditionDescription: 15 min
This is one part of the list. The true hit rate is not given.
Classification field: enter 1.0 for furin cleavage Z-score values not below -0.9, 0.0 for values below it.

Worked set:
{"sequenceData": "CARRPRRVIAAGNASASA [FS-2179]", "classLabel": 1.0}
{"sequenceData": "CARRLRDQEAAGNASASA [FS-1781]", "classLabel": 0.0}
{"sequenceData": "CAYVSRLRRVAGNASASA [FS-1441]", "classLabel": 1.0}

# check: furin cleavage Z-score of CARRPRHLSAAGNASASA [FS-1837] is greater than or equal to -0.9
1.0

# check: furin cleavage Z-score of CASTLCSAHLAGNASASA [HC2505] is greater than or equal to -0.9
1.0

# check: furin cleavage Z-score of CARPARSGGPAGNASASA [FS-2735] is greater than or equal to -0.9
0.0
